Value source: ChEMBL document CHEMBL1143829

- assayMethodText: Cmax at steady state in human after 4 days
- Format: ADME, organism-based
- measurementContext: in vivo
measuredParameter: Cmax (ng/mL)
Numbers only, in ng/mL.

Fill in: Cmax of COc1c(N2CC[C@@H](C3(N)CC3)C2)ccc2c(=O)c(C(=O)O)cn([C@@H]3C[C@@H]3F)c12 is ___
8850

----------
- assayMethodText: Renal clearance in human urine after 4 days
- Type: ADME, organism-based
- measurementContext: read-out: CL_renal (converted)
measuredParameter: CL renal at 96 h (mL/min)
One number for each entry, in mL/min.

What CL renal at 96 h value was documented for this compound, COc1c(N2CC[C@@H](C3(N)CC3)C2)ccc2c(=O)c(C(=O)O)cn([C@@H]3C[C@@H]3F)c12 ?
43.3
